IC50 overview
tested on: SCC 68 Human Squamous Cell Carcinoma; experiment: Initial in vitro screening, squamous cell carcinoma cells; type: cell-based; details: cell line 7, SCC 68 human squamous cell carcinoma; unit from method; read-out: IC50 (concentration at which 50% of the cells of the culture are killed)
Quick note: give the figure in µg/mL, leave out the unit.

CCN1C(=CC=Cc2sc3cc4ccccc4nc3[n+]2CC)Sc2cc3ccccc3nc21
0.1
COc1cccc2c1C(=O)c1c(O)c3c(c(O)c1C2=O)C[C@@](O)(C(=O)CO)C[C@@H]3O[C@H]1C[C@H](N)[C@H](O)[C@H](C)O1 [Adriamycin, reference compound]
0.08

Now turn to the next compound.
Given the entry CCN1/C(=C/N=N/c2sc3ccccc3[n+]2CC)Sc2ccccc21 [Dye O-1, reference compound] , report its measured IC50.
0.3

###

Er overview
assay: Electrochemical reduction potential (Er) measurement, SHACV / fast scan CV; type: physicochemical; details: Table XIX; reduction potential vs. Ag/AgCl; in V (unit assumed)
In your answer, state the number alone without any accompanying words.

Example compounds with recorded Er:
CCN1/C(=C\C=C\C2=[N+](CC)c3ccccc3C2(C)C)C(C)(C)c2ccccc21
−1.000
CCN1/C(=C/C=C/c2sc3cc4ccccc4cc3[n+]2CC)Sc2cc3ccccc3cc21 [Dye D-160]
−0.920

Given the entry `CCN1C(=CC=Cc2sc3cc4ccccc4nc3[n+]2CC)Sc2cc3ccccc3nc21` , report its measured Er.
−0.808

Given the entry `CCN1/C(=C/C=C/c2sc3ccccc3[n+]2CC)Sc2ccccc21.[I-]` , report its measured Er.
−1.060

Given the entry CCN1/C(=C/C=C/c2sc3cc4ccccc4cc3[n+]2CC)Sc2cc3ccccc3cc21 [Dye D-109] , report its measured Er.
−0.920

###

system: CX-1 Human Colon Carcinoma; experiment: Clonogenic dye screening assay, CX-1 cells (IC50); assay type: cell-based; details: Homo sapiens, CX-1, read-out: CX (IC50 in the CX-1 cell line)
measured_endpoint: IC50 (ng/mL)
Quick note: give the figure in ng/mL, leave out the unit.

Example compounds with recorded IC50:
CCN1/C(=C/C=C/c2sc3ccccc3[n+]2CC)[Se]c2ccc(OC)cc21
2.5
CC[n+]1c(/C=C/c2ccc(N(C)C)cc2)[te]c2ccc(C)cc21
50

Now turn to the next compound.
Given the entry `CCN1/C(=C\C=C\C2=[N+](CC)c3ccccc3C2(C)C)C(C)(C)c2ccccc21` , report its measured IC50.
10

###

test system: CX-1 Human Colon Carcinoma; test: Clonogenic dye screening assay, CX-1 cells (IC50); assay type: cell-based; settings: Table XVII; selectivity ratio of IC50 values
measured_endpoint: CV/CX
In your answer, state the number alone without any accompanying words.

CCN1/C(=C/C(C)=C/c2[te]c3ccc(C)cc3[n+]2CC)Sc2ccc(OC)cc21 [R=E, X=S, Z1=5-Me, R2=Me, Z2=5-MeO]
33.3

Now turn to the next compound.
Notebook: pull reported CV/CX for CX-1 Human Colon Carcinoma, entry CCN1/C(=C/C(=C/c2[te]c3ccc(OC)cc3[n+]2CC)c2ccccc2)Sc2ccccc21 [R=E, X=S, Z1=5-MeO, R2=Ph, Z2=H]
26.6

###

IC50 overview
tested on: CV-1 Normal Monkey Kidney Epithelial; assay: Clonogenic dye screening assay, CV-1 cells (IC50); format: cell-based, African green monkey; settings: Primates, CV-1, 3 hrs treatment, colonies after 7-10 days; unit from method; read-out: CV (IC50 in the CV-1 cell line)
Quick note: give the figure in µg/mL, leave out the unit.

Example molecules with recorded IC50:
CC[n+]1c(/C=C/C=C2\OC=C(c3ccccc3)N2C)sc2ccccc21 [Dye D-145]
0.3
CCN1/C(=C/C=C/c2sc3c([n+]2C)CCCC3)Sc2ccccc21 [Dye D-146]
0.3
CCN1/C(=C/C=N/c2sc3ccccc3[n+]2CC)Sc2ccccc21 [Dye D-149]
7
CCN1/C(=c2\s/c(=c3\s/c(=C/c4sc5ccccc5[n+]4CC)n(CC)c3=O)n(CC)c2=O)Sc2ccccc21 [Dye D-112]
9
CCN1/C(=C/C=C/c2sc3cc4c(cc3[n+]2CC)OCO4)Oc2ccccc21 [Dye D-163]
0.3

Given the entry CCN1/C(=C/C=C/c2oc3ccc(-c4ccccc4)cc3[n+]2CC)Sc2ccccc21 [Dye D-131] , report its measured IC50.
0.3

Given the entry CC[n+]1c(/C=C/C=C2\Sc3ccccc3N2CC#N)oc2ccccc21 [Dye D-124] , report its measured IC50.
10

Given the entry CCN1/C(=C\C=c2\s/c(=C/c3sc4ccccc4[n+]3CC)n(C)c2=O)Sc2ccccc21 [Dye D-111] , report its measured IC50.
8

Given the entry CC[n+]1c(/C=C/C=C2/c3c(C)ccc(C)c3C(C)(Cc3ccccc3)N2C)sc2ccccc21 [Dye D-132] , report its measured IC50.
3

###

test system: CX-1 Human Colon Carcinoma; experiment: Clonogenic dye screening assay, CX-1 cells (IC50); format: cell-based; conditions: Homo sapiens, CX-1, 3 hrs treatment, colonies after 7-10 days; unit from method; read-out: CX (IC50 in the CX-1 cell line)
Threshold-based label: IC50 under 0.04 mg/L gives 1, IC50 not under 0.04 mg/L gives -1.

Below are worked cases with known answers.
CC[n+]1c(/C=C/C=C2\OC=C(c3ccccc3)N2C)sc2ccccc21
1
CCN1/C(=C/C=C/c2sc3cc4ccccc4nc3[n+]2CC)Sc2ccc3ccccc3c21
-1
CCN1/C(=C/C=C/c2sc3ccccc3[n+]2CCO)Sc2ccccc21
1
CCN1/C(=C/C=C/c2oc3ccc(-c4ccccc4)cc3[n+]2CCOC(C)=O)Sc2ccccc21
1
CC[n+]1c(/C=C/C=C2\SC=C(C)N2C)oc2ccccc21
1

For this compound, is IC50 lower than 0.04 mg/L? `Clc1ccc2c(c1)N1CCC(/C=C3\CC[n+]4c3sc3ccc(Cl)cc34)=C1S2`
-1

For this compound, is IC50 lower than 0.04 mg/L? `CC[n+]1c(/C=C/C=C2\SCCCN2C)sc2ccccc21`
1

For this compound, is IC50 lower than 0.04 mg/L? `CCN1/C(=c2/s/c(=c3\s/c(=C\c4ccc5ccccc5[n+]4CC)n(CC)c3=O)n(CC)c2=O)Sc2ccccc21`
-1

For this compound, is IC50 lower than 0.04 mg/L? `CCN1/C(=C/C=C/c2sc3c([n+]2C)CCCC3)Sc2ccccc21`
1

For this compound, is IC50 lower than 0.04 mg/L? `CCN(CC)CCN1/C(=C/C(C)=C/c2sc3ccccc3[n+]2CCN(CC)CC)Sc2ccccc21`
1

###

CV (IC50 in the CV-1 cell line) overview
test system: CV-1 Normal Monkey Kidney Epithelial; assay: Clonogenic dye screening assay, CV-1 cells (IC50); assay type: cell-based, African green monkey; conditions: 3 hrs treatment, colonies after 7-10 days; unit from method b117-118
Quick note: give the figure in µg/mL, leave out the unit.

Example molecules with recorded CV (IC50 in the CV-1 cell line):
CCN1/C(=C/C=C/c2oc3ccccc3[n+]2CC)Sc2ccc(O)cc21.[I-]
0.3
CCSC(=C\c1oc2ccccc2[n+]1C)/C=C1\Sc2ccccc2N1CC.[I-]
0.3
CCN1/C(=C/C(C)=C/c2sc3ccc4ccccc4c3[n+]2CC)Oc2ccc3ccccc3c21 [drawing 40|E|Me]
0.1

Given the entry CC(=CC(C)=C1Sc2ccccc2N1C)c1sc2ccccc2[n+]1C [drawing 38|M|Me|H|Me] , report its measured CV (IC50 in the CV-1 cell line).
0.5

Given the entry `CCN1/C(=C/C=C/c2oc3ccc(OC)cc3[n+]2CC)Sc2ccccc21.[I-]` , report its measured CV (IC50 in the CV-1 cell line).
0.3

Given the entry `CCSC(=C\c1oc2ccccc2[n+]1CC)/C=C1\Sc2ccccc2N1CC.[I-]` , report its measured CV (IC50 in the CV-1 cell line).
0.5

Given the entry `CCN1/C(=C(\C=C\c2oc3ccccc3[n+]2CC)c2ccccc2)Sc2ccccc21.[I-]` , report its measured CV (IC50 in the CV-1 cell line).
3.0

Given the entry `CCN1/C(=C/C=C/c2oc3ccccc3[n+]2CC)Sc2cccc(-c3ccccc3)c21.[I-]` , report its measured CV (IC50 in the CV-1 cell line).
0.8

Given the entry `CCN1/C(=C/C(=C/c2oc3ccccc3[n+]2CC)SC)Sc2ccccc21.[I-]` , report its measured CV (IC50 in the CV-1 cell line).
3.0

Given the entry `CCN1/C(=C/C=C/c2oc3ccc(SC)cc3[n+]2C)Sc2ccccc21.[I-]` , report its measured CV (IC50 in the CV-1 cell line).
0.3

###

system: CV-1 Normal Monkey Kidney Epithelial; test: Clonogenic dye screening assay, CV-1 cells (IC50); format: cell-based, African green monkey; conditions: Primates, CV-1, 3 hrs treatment, colonies after 7-10 days; unit from method; read-out: CV (IC50 in the CV-1 cell line)
IC50 overview
Quick note: give the figure in µg/mL, leave out the unit.

CCN1C(=O)/C(=C\C=C2/Oc3ccccc3N2CC)S/C1=N\c1sc2ccccc2[n+]1CC
3

Given the entry `CCN1/C(=C/C=C/c2cc3scc([S-])[n+]3c3ccccc23)Oc2ccccc21` , report its measured IC50.
0.5

Given the entry `CC[n+]1c(/C=C/C=C2\Sc3ccccc3N2C(C)C)oc2ccccc21` , report its measured IC50.
0.4

Given the entry `C(=C\c1cc[n+]2c3c(cccc13)Sc1ccccc1-2)/C=c1\ccn2c3ccccc3sc3cccc1c3-2` , report its measured IC50.
7

Given the entry `CCN1/C(=C/C=C/c2oc3ccc(-c4ccccc4)cc3[n+]2CCOC(C)=O)Sc2ccccc21` , report its measured IC50.
3

Given the entry `CCN(CC)CCN1/C(=C/C(C)=C/c2sc3ccccc3[n+]2CCN(CC)CC)Sc2ccccc21` , report its measured IC50.
0.8

Origin of measurements: patent US20060099712A1
